# assayMethodText: Antiproliferative activity against human QSG7701 cells assessed as inhibition of cell proliferation incubated for 48 hrs by MTT assay
# Assay type: toxicity, cell-based
Exercise: state measured IC50 at 48 h for each of the molecules provided.

The examples below pair each entry with its known result.
[[record]]
mol = "CN(C)CCNC(=O)Nc1cc2c3c(cccc3c1)C(=O)N(CCN(C)C)C2=O"
assayreadout = "IC50 at 48 h"
measuredresult = "> 50 µM"

[[record]]
mol = "CN(C)CCN1C(=O)c2cccc3cc(NC(=O)NCCCNCCCNCCCCN)cc(c23)C1=O"
assayreadout = "IC50 at 48 h"
measuredresult = "> 50 µM"


Now, please, on to the next molecule.
In plain terms, `CN(C)CCN1C(=O)c2cccc3cc(NC(=O)NCCCNCCCCN)cc(c23)C1=O` has a documented IC50 at 48 h of > 50 µM
